Biological target: CCAAT/enhancer-binding protein beta (Homo sapiens) (UniProt P17676)
Sequence (P17676 whole entry, looked up): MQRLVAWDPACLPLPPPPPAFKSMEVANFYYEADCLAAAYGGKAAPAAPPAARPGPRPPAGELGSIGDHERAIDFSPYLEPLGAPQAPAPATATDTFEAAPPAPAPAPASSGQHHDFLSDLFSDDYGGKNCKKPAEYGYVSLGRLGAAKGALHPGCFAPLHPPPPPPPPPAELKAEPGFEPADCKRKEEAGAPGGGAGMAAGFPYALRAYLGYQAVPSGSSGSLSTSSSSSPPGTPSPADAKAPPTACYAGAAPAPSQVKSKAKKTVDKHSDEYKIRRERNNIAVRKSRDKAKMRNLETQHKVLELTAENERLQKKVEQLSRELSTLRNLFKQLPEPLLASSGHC
Assay: ATG_C_EBP_CIS: Attagene CIS-FACTORIAL HepG2 Assay for human CCAAT/Enhancer Binding Protein (C/EBP) beta (AID 2282927)
Conditions: HepG2 Attagene cis-factorial transcription factor reporter; actives raise or lower the signal
Active and inactive are the calls of the source. Rule for the calls: active = hit-call score of the fitted dose curve at least 0.9, where 1 is the maximum; inactive = score below 0.9.
Outcome codes: active, inactive

MOLECULE | CLASS LABEL
C=Cc1ccc(C(C)(C)C)cc1 | inactive
CCCCCCC(=O)c1ccccc1 | inactive
CC(C)c1ccccc1O | inactive
CCCC1O[C@@H]2C[C@H]3[C@@H]4CCC5=CC(=O)C=C[C@]5(C)[C@H]4[C@@H](O)C[C@]3(C)[C@]2(C(=O)CO)O1 (some centres undefined) | active
CCCC(O)C(O)CO (centres undefined) | inactive
CC(=O)NCCO | inactive
CC(O)C1CCCCC1 (centres undefined) | inactive
ClC(c1ccccc1)(c1ccccc1)c1ccccc1 | inactive
CCCC(=O)c1ccccc1 | inactive
CC(C)(C)C1=CC(=O)C(C(C)(C)C)=CC1=O | inactive
COC(C)(C)CCO | inactive
CN(C)C(=O)Nc1ccc(Oc2ccc(Cl)cc2)cc1 | inactive
CCCCCCCCCCCC(=O)OC[C@@H](O)[C@H]1OC[C@H](O)[C@H]1O | inactive
CS(=O)(=O)OCCCCOS(C)(=O)=O | inactive
C=C(C)C(=O)OCCOCCOCCOC(=O)C(=C)C | inactive
NCC1CCCC(CN)C1 (centres undefined) | inactive
Cc1ccc2c(c1)C(=O)OC2=O | inactive
CCCCCCC(C)Nc1ccc(Nc2ccccc2)cc1 (centres undefined) | inactive
OCCOCCN1CCN(C2=Nc3ccccc3Sc3ccccc32)CC1 | inactive
c1ccc2cc(Nc3ccc(Nc4ccc5ccccc5c4)cc3)ccc2c1 | inactive
CCOc1ccc(NC(=O)CC(C)=O)cc1 | inactive
CC1(C)C2=CCCC(C)(C)[C@]23CC[C@H]1C3 | inactive
CCOC(=O)CC(C)O (centres undefined) | inactive
COC(=O)Nc1ccc(Cl)c(Cl)c1 | inactive
CCCSc1ccc2nc(NC(=O)OC)[nH]c2c1 | inactive
OCC(O)c1ccccc1 (centres undefined) | inactive
Nc1c(Cl)cc(Cl)cc1[N+](=O)[O-] | inactive
CCCOC(=O)c1c(Cl)c(Cl)c(Cl)c(Cl)c1C(=O)OCCC | inactive
C=Cc1ccncc1 | active

* * *

Test: TOX21_p53_BLA_p3_viability: Viability Assessment in the Tox21 HCT-116 p53 Agonism Beta-lactamase Assay, Phase 3 (AID 2283593);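 note: cells exposed to compound for 16 h before reading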
Inconclusive results are not listed. Calls of active or inactive are those of the source. The calls were made as follows: active = hit-call score of the fitted dose curve at least 0.9, where 1 is the maximum; inconclusive = response in the unintended direction; inactive = score below 0.9.
Outcome codes: active, inactive

MOLECULE | CLASS LABEL
COCCOC(=O)c1ccccc1C(=O)OCCOC | inactive
CCOC(=O)C(C#N)=C(c1ccccc1)c1ccccc1 | inactive
COc1cc([C@@H]2c3cc4c(cc3[C@@H](O[C@@H]3O[C@@H]5CO[C@@H](C)O[C@H]5[C@H](O)[C@H]3O)[C@H]3COC(=O)[C@H]23)OCO4)cc(OC)c1O | inactive
Cc1[nH]c(=O)c(C#N)cc1-c1ccncc1 | inactive
CC(Oc1cc(Cl)ccc1Cl)C(=O)O (stereo not drawn) | inactive
N#Cc1cscn1 | inactive
C/C=C(\C)C(=O)OCCc1ccccc1 | inactive
Cc1ccc(OC(=O)c2ccccc2O)cc1 | inactive
Cc1cc(C)nc(NS(=O)(=O)c2ccc(N)cc2)n1 | inactive
CSCCC=O | inactive
CCCCCCCCCCCC(=O)OC[C@@H](O)[C@H]1OC[C@H](O)[C@H]1O | inactive
CC(C)CC(C)CC(O)CC(C)C (stereo not drawn) | inactive
OCC#CCO | inactive
CCCCCC(=O)CC | inactive
[Cl][Au]([Cl])[Cl] | active
CCOC(=O)COC(=O)c1cc(Oc2ccc(C(F)(F)F)cc2Cl)ccc1[N+](=O)[O-] | inactive
OCCCCC(O)CO (stereo not drawn) | inactive
CC(C=O)Cc1ccc(C(C)(C)C)cc1 (stereo not drawn) | inactive
C=C(CC(=O)O)C(=O)O | inactive
CCC(C)=O | inactive
Nc1ccc(N)c2c1C(=O)c1ccccc1C2=O | inactive
NC1CCCCC1N (stereo not drawn) | inactive
OCc1cccc(Oc2ccccc2)c1 | inactive
CC(=O)OCCCc1ccccc1 | inactive
CC1(C)O[C@@H]2C[C@H]3[C@@H]4CCC5=CC(=O)C=C[C@]5(C)[C@@]4(F)[C@@H](O)C[C@]3(C)[C@]2(C(=O)CO)O1 | inactive
CCOC(=O)CCc1ccccc1 | inactive
C=C(C)C(=O)OCC(CC)(COC(=O)C(=C)C)COC(=O)C(=C)C | inactive
CCc1ccc(O)cc1 | inactive
